test system: ST8814; assay: relative IC50 (inflection point of fitted dose-response curve, CellTox-Green cytotoxicity, 72 h; top asymptote may be below 50%); higher = less potent
REPORTED METRIC: relative IC50

compound=NS(=O)(=O)OC[C@@H]1C[C@@H](n2ccc3c(N[C@H]4CCc5ccccc54)ncnc32)C[C@@H]1O reported_metric="relative IC50" result_value="201 nM"
compound="O=P1(NCCCl)OCCCN1CCCl (stereo not drawn) [Ifosfamide]" reported_metric="relative IC50" result_value="> 10000 nM"
compound=OC[C@H]1O[C@@H](n2cnc3c2N=CNC[C@H]3O)C[C@@H]1O reported_metric="relative IC50" result_value="> 10000 nM"
compound=CNC(=O)c1ccc(N2C(=S)N(c3ccc(C#N)c(C(F)(F)F)c3)C(=O)C23CCC3)cc1F reported_metric="relative IC50" result_value="> 10000 nM"
compound=C[C@]12C=CC(=O)C=C1CC[C@@H]1[C@@H]2C(=O)C[C@@]2(C)[C@H]1CC[C@]2(O)C(=O)CO reported_metric="relative IC50" result_value="> 10000 nM"
compound="CCN(CC)CCCC(C)Nc1ccnc2cc(Cl)ccc12 (stereo not drawn)" reported_metric="relative IC50" result_value="2820 nM"
compound=Cn1c(CCCC(=O)O)nc2cc(N(CCCl)CCCl)ccc21 reported_metric="relative IC50" result_value="> 10000 nM"
compound=CCN(CCO)CCCOc1ccc2c(Nc3cc(CC(=O)Nc4cccc(F)c4)[nH]n3)ncnc2c1 reported_metric="relative IC50" result_value="206 nM"

----------
test system: S1507-2; assay: drug sensitivity score (DSS, CellTiter-Glo viability, 72 h) (DSS (dimensionless)); higher = more sensitive; extreme values may be limits of the assay
Entries annotated with measured drug sensitivity score
REPORTED METRIC: drug sensitivity score

compound="Cn1nnc2c(C(N)=O)ncn2c1=O [Temozolomide] (max concentration tested 10000 nM)" reported_metric="drug sensitivity score" result_value=0.17
compound="C=CCn1c(=O)c2cnc(Nc3ccc(N4CCN(C)CC4)cc3)nc2n1-c1cccc(C(C)(C)O)n1 [MK1775] (max concentration tested 10000 nM)" reported_metric="drug sensitivity score" result_value=16.3
compound="CC/C(=C(\\c1ccccc1)c1ccc(OCCN(C)C)cc1)c1ccccc1 [Tamoxifen] (max concentration tested 10000 nM)" reported_metric="drug sensitivity score" result_value=1.29
compound="Cc1ccc(NC(=O)c2ccc(CN3CCN(C)CC3)cc2)cc1Nc1nc(-c2cccnc2)cs1 [Masitinib] (max concentration tested 10000 nM)" reported_metric="drug sensitivity score" result_value=7.56
compound="CS(=O)(=O)N1CCN(Cc2cc3nc(-c4cccc5[nH]ncc45)nc(N4CCOCC4)c3s2)CC1 [Pictilisib] (max concentration tested 10000 nM)" reported_metric="drug sensitivity score" result_value=13.4
compound="CS(=O)(=O)c1ccc(C2=C(c3ccccc3)C(=O)OC2)cc1 [Rofecoxib] (max concentration tested 10000 nM)" reported_metric="drug sensitivity score" result_value=0
compound="CCCCC(=O)OCC(=O)[C@]1(O)Cc2c(O)c3c(c(O)c2[C@@H](O[C@H]2C[C@H](NC(=O)C(F)(F)F)[C@H](O)[C@H](C)O2)C1)C(=O)c1c(OC)cccc1C3=O [Valrubicin] (max concentration tested 5000 nM)" reported_metric="drug sensitivity score" result_value=10.2
compound="O=C(CCCCCCC(=O)Nc1ccccc1)NO [Vorinostat] (max concentration tested 10000 nM)" reported_metric="drug sensitivity score" result_value=9.06
compound="CCCc1cc(C)[nH]c(=O)c1CNC(=O)c1cc(-c2ccnc(N3CCN(C)CC3)c2)cc2c1cnn2C(C)C [GSK343] (max concentration tested 10000 nM)" reported_metric="drug sensitivity score" result_value=5.5
compound="O=C(Nc1ccc2[nH]nc(-c3ccncc3)c2c1)[C@@H]1CCN(CC(=O)N2CCN(c3ccc(-c4ncccn4)cc3)CC2)C1 (max concentration tested 10000 nM)" reported_metric="drug sensitivity score" result_value=10.7
compound="Cc1cnc(Nc2ccc(F)cc2Cl)nc1-c1c[nH]c(C(=O)N[C@H](CO)c2cccc(Cl)c2)c1 [VX-11E] (max concentration tested 2500 nM)" reported_metric="drug sensitivity score" result_value=1.62
compound="COc1ccccc1S(=O)(=O)Nc1ccc2c(c1)CN(C)C(=O)N2 [PFI-1] (max concentration tested 10000 nM)" reported_metric="drug sensitivity score" result_value=6.21

----------
system: HS-Sch-2; assay: relative IC50 (inflection point of fitted dose-response curve, CellTiter-Glo viability, 72 h; top asymptote may be below 50% inhibition); higher = less potent
REPORTED METRIC: relative IC50

compound="CNC(=O)c1ccccc1Nc1cc(Nc2ccc(N3CCOCC3)cc2OC)ncc1C(F)(F)F [VS-4718]" result_value="2.61 µM"
compound="CN(C)c1cc2c(cc1Sc1nc3c(N)nccc3n1CCNCC(C)(C)C)OCO2 [CUDC-305]" result_value="0.219 µM"
compound="Cn1cc(-c2cnn3c(N)c(Br)c([C@@H]4CCCNC4)nc23)cn1 [MK-8776]" result_value="0.36 µM"
compound="C=CC(=O)N1CCC[C@@H](n2nc(-c3ccc(Oc4ccccc4)cc3)c3c(N)ncnc32)C1 [Ibrutinib]" result_value="> 1 µM"
compound="CC(C)(C)Cn1c(N)nc2ccc(-c3[nH]c(C(C)(C)C)nc3-c3ccc(F)cc3)nc21 [Ralimetinib]" result_value="3.33 µM"
compound="CC(C)[C@@H](CS(=O)(=O)C(C)C)N1C(=O)[C@@](C)(CC(=O)O)C[C@H](c2cccc(Cl)c2)[C@H]1c1ccc(Cl)cc1 [AMG-232]" result_value="> 1 µM"
compound="N[C@@H](Cc1ccc(N(CCCl)CCCl)cc1)C(=O)O [Melphalan]" result_value="> 12.5 µM"
compound="COc1ccc(-c2ccc3c(N4CCOC[C@@H]4C)nc(N4CCOC[C@@H]4C)nc3n2)cc1CO [AZD8055]" result_value="0.0833 µM"

----------
system: S1507-2; experiment: drug sensitivity score (DSS, CellTiter-Glo viability, 72 h) (DSS (dimensionless)); higher = more sensitive; extreme values may be limits of the assay
Lab note: class by drug sensitivity score, see bottom end: < 0.9; midrange: ≥ 0.9 and < 3; top end: ≥ 3

compound="CC[C@]1(O)C[C@@H]2CN(CCc3c([nH]c4ccccc34)[C@@](C(=O)OC)(c3cc4c(cc3OC)N(C)[C@H]3[C@@](O)(C(=O)OC)[C@H](OC(C)=O)[C@]5(CC)C=CCN6CC[C@]43[C@@H]65)C2)C1 [Vinblastine] (max concentration tested 1000 nM)" qualitative_label="top end"
compound="CCCCC/C=C/C=C1/C(=O)C=C[C@@H]1C/C=C\\CCCC(=O)O [15D-PGJ2] (max concentration tested 800 nM)" qualitative_label="bottom end"
compound="COc1cc(O)c2c(c1)/C=C/C[C@H](O)[C@H](O)C(=O)/C=C\\C[C@H](C)OC2=O [(5Z)-7-Oxozeaenol] (max concentration tested 10000 nM)" qualitative_label="top end"
compound="C=CCNC1=C2C[C@@H](C)C[C@H](OC)[C@H](O)[C@@H](C)/C=C(\\C)[C@H](OC(N)=O)[C@@H](OC)/C=C\\C=C(/C)C(=O)NC(=CC1=O)C2=O [Tanespimycin] (max concentration tested 10000 nM)" qualitative_label="top end"
compound="O=C(O)CNC(=O)c1c(O)c2ccccc2n(Cc2ccccc2)c1=O [IOX-2] (max concentration tested 50000 nM)" qualitative_label=midrange
compound="COc1ccc(C2=N[C@@H](c3ccc(Cl)cc3)[C@@H](c3ccc(Cl)cc3)N2C(=O)N2CCNC(=O)C2)c(OC(C)C)c1 [Nutlin-3] (max concentration tested 10000 nM)" qualitative_label="bottom end"
compound="COc1ccc(-c2ccc3c(N4CCOC[C@@H]4C)nc(N4CCOC[C@@H]4C)nc3n2)cc1CO [AZD8055] (max concentration tested 10000 nM)" qualitative_label="top end"
compound="CO[C@@H](C(=O)N1Cc2[nH]nc(NC(=O)c3ccc(N4CCN(C)CC4)cc3)c2C1)c1ccccc1 [Danusertib] (max concentration tested 10000 nM)" qualitative_label="top end"
compound="Nc1nccc(-c2c(-c3ccc(F)cc3)ncn2C2CCCCC2)n1 (max concentration tested 10000 nM)" qualitative_label="bottom end"
compound="O=P1(N(CCCl)CCCl)NCCCO1 (stereo not given) [Cyclophosphamide] (max concentration tested 40000 nM)" qualitative_label="bottom end"
compound="CN(Cc1cnc2nc(N)nc(N)c2n1)c1ccc(C(=O)N[C@@H](CCC(=O)O)C(=O)O)cc1 [Methotrexate] (max concentration tested 5000 nM)" qualitative_label=midrange
compound="CN1CCc2c(c3ccccc3n2Cc2ccc(C(=O)NO)cc2)C1 [Tubastatin A] (max concentration tested 10000 nM)" qualitative_label="top end"
compound="CC(=O)Nc1ccc(C(=O)Nc2ccccc2N)cc1 [Tacedinaline] (max concentration tested 1000 nM)" qualitative_label="bottom end"
compound="CNC(=O)c1ccccc1Sc1ccc2c(/C=C/c3ccccn3)n[nH]c2c1 [Axitinib] (max concentration tested 10000 nM)" qualitative_label="top end"
compound="CN1CC[C@H](c2c(O)cc(O)c3c(=O)cc(-c4ccccc4Cl)oc23)[C@H](O)C1 [Alvocidib] (max concentration tested 10000 nM)" qualitative_label="top end"
compound="CC(=O)Nc1cccc(-n2c(=O)n(C3CC3)c(=O)c3c(Nc4ccc(I)cc4F)n(C)c(=O)c(C)c32)c1 [Trametinib] (max concentration tested 250 nM)" qualitative_label="top end"
compound="CC(C)c1c(C(=O)Nc2ccccc2)c(-c2ccccc2)c(-c2ccc(F)cc2)n1CC[C@@H](O)C[C@@H](O)CC(=O)O [Atorvastatin] (max concentration tested 10000 nM)" qualitative_label=midrange
compound="O=C1CCC(N2C(=O)c3ccccc3C2=O)C(=O)N1 (stereo not given) [Thalidomide] (max concentration tested 10000 nM)" qualitative_label="bottom end"
compound="Nc1nc2[nH]cnc2c(=S)[nH]1 [Thioguanine] (max concentration tested 10000 nM)" qualitative_label="top end"
compound="CS(=O)(=O)c1ccc(C(=O)Nc2ccc(Cl)c(-c3ccccn3)c2)c(Cl)c1 [Vismodegib] (max concentration tested 10000 nM)" qualitative_label="bottom end"
compound="CCc1cncnc1N1CCN(Cc2nc3ccc(C(F)(F)F)cc3[nH]2)CC1 (max concentration tested 10000 nM)" qualitative_label="bottom end"
compound="NC1(c2ccc(-c3nc4ccn5c(=O)[nH]nc5c4cc3-c3ccccc3)cc2)CCC1 [MK-2206] (max concentration tested 1000 nM)" qualitative_label=midrange
compound="COc1cc(CCc2cc(NC(=O)c3ccc(N4CC(C)NC(C)C4)cc3)n[nH]2)cc(OC)c1 (stereo not given) [AZD4547] (max concentration tested 1000 nM)" qualitative_label=midrange
